molecular target: Cyno BCMA DTA-His (cynomolgus;, UniProt A0A2K5UD97 1-53; P00588 33-225); assay: SPR
Sequence (P00588 32-225, tags or fused parts left off): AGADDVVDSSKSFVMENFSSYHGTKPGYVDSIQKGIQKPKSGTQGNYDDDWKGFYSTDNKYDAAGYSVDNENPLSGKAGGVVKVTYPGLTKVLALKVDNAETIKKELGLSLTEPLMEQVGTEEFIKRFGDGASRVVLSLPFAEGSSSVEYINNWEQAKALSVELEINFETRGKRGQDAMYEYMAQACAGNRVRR
quantity_kind: pKd
By convention, pKd is the negative base-10 log of a molar concentration.

Identify pKd associated with the binder CA10 Variant 3 (antibody, V domains shown) VH: QVQLVESGGGVVQPGRSLRLSCAASGFTFSNFGMHWVRQAPGRGLEWVAVIWSDETNRYYADSVKGRFTVSRDNVKSTVYLQMNSLISEDTAVYYCARDQQYCSSDSCFTWFDPWGQGTLVTVSS VL: QTVVTQEPSLTVSPGGTVTLTCASSTGAVTPSNYANWVQQKPGQAPRGLIGDNNIKPPWTPARFSGSLLGGKAALTLSGVQPEDEAEYYCALWYGGQWVFGGGTKLTVL
9.06

Identify pKd associated with the binder CA10 Variant 1 (antibody, V domains shown) VH: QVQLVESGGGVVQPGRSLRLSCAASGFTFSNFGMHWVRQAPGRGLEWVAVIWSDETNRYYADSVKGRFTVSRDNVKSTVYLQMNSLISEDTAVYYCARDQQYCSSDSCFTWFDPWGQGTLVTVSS VL: QTVVTQEPSLTVSPGGTVTLTCRSSTGTVTPSNYANWVQQKPDHFFTGLIGDNNSRPPGVPARFSASLIGDKAALTLSGVQPEDEAEYYCALWFGNQWVFGGGTKLTVL
10.38

Identify pKd associated with the binder CA10 Variant 4 (antibody, V domains shown) VH: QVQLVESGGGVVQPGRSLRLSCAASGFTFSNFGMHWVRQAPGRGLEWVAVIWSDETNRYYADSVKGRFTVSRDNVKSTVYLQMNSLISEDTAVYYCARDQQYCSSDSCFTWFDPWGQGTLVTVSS VL: QTVVTQEPSLTVSPGGTVTLTCASSTGAVTPGYYANWVQQKPGQAPRGLIGDNNNKPPWTPARFSGSLLGGKAALTLSGVQPEDEAEYYCALYYGGQWVFGGGTKLTVL
7.88

Identify pKd associated with the binder CA10_parental (antibody, V domains shown) VH: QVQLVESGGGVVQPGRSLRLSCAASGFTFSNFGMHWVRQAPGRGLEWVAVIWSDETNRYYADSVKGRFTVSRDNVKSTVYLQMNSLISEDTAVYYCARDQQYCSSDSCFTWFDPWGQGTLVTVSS VL: QVVVTQESALTTSPGETVTLTCRSSTGTVTPSNYANWVQEKPDHFFTGLIGDNNSRPPGVPARFSASLIGDKAALTITGAQTEDEAMYFCALWFGNQWVFGGGTKVTVL
10.50

Identify pKd associated with the binder CA10 Variant 2 (antibody, V domains shown) VH: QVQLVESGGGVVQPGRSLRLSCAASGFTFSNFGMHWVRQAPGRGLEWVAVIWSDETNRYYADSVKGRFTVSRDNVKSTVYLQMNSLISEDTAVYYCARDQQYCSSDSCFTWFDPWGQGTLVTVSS VL: QTVVTQEPSLTVSPGGTVTLTCASSTGTVTPSNYANWVQQKPGQAPRGLIGDNNSRPPGTPARFSASLLGGKAALTLSGVQPEDEAEYYCALWFGNQWVFGGGTKLTVL
10.04

Identify pKd associated with the binder CA10 Variant 5 (CA10_PE_V5) (antibody, V domains shown) VH: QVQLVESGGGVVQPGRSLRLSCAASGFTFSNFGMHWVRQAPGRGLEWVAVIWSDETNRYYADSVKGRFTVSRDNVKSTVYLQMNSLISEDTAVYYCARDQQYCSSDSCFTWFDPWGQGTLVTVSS VL: QTVVTQEPSLTVSPGGTVTLTCASSTGAVTSGYYANWVQQKPGQAPRALIGDNNIKPSWTPARFSGSLLGGKAALTLSGVQPEDEAEYYCALYYGGQWVFGGGTKLTVL
8.90

Identify pKd associated with the binder CA10 Variant 6 (antibody, V domains shown) VH: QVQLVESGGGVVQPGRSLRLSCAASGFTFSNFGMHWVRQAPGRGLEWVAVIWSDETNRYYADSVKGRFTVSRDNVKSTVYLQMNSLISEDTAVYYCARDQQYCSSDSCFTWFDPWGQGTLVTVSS VL: QTVVTQEPSLTVSPGGTVTLTCASSTGTVTPSNYANWVQQKPGQFPRGLIGDNNSRPPGTPARFSASLLGGKAALTLSGVQPEDEAEYYCALWFGNQWVFGGGTKLTVL
10.02
